# System: SK-MEL-28 melanoma
# METHOD NOTES: NCI-60 one-dose screen, 48 h
# MEASUREMENT SETUP: 10 µM unless noted
Compounds without any hit were thinned out: in the full panel of roughly 83,000, 20% have a hit. Activity calls are given as the source filed them. Rule for the calls: active = growth percent below 10; inactive = the rest.
Classes used: active, inactive

>  <COMPOUND>
COc1cc(OC)cc(C(=O)Nc2cnc(Nc3ccc(N4CCOCC4)nc3)nc2Oc2ccc(C(F)(F)F)cc2)c1

>  <CATEGORY LABEL>
inactive

$$$$
>  <COMPOUND>
C=CCn1c(SCC(=O)Nc2ccc(C(=O)/C=C/c3ccc(Cl)cc3)cc2)nnc1-c1ccccc1

>  <CATEGORY LABEL>
inactive

$$$$
>  <COMPOUND>
O=C(Nc1ccccc1)Nc1ccccc1CNc1nc(Nc2ccc(OCCN3CCCC3)cc2)ncc1Cl

>  <CATEGORY LABEL>
inactive

$$$$
>  <COMPOUND>
Cc1ccc(Nc2cc(N)nc(N)n2)cc1

>  <CATEGORY LABEL>
inactive

$$$$
>  <COMPOUND>
CN1CCN(CC(=O)N(C)c2ccc(N=C(c3ccccc3)c3c(O)[nH]c4ccc([N+](=O)[O-])cc34)cc2)CC1

>  <CATEGORY LABEL>
inactive

$$$$
>  <COMPOUND>
CCOC(=O)/C(=C/c1ccc([N+](=O)[O-])cc1)C(=O)c1ccccc1

>  <CATEGORY LABEL>
active

$$$$
>  <COMPOUND>
Cn1cc(-c2ccc3occ(-c4cccc(-c5ccncc5)c4)c3n2)cn1

>  <CATEGORY LABEL>
inactive

$$$$
>  <COMPOUND>
N#Cc1nn(-c2ccccn2)c(N)c1C#N

>  <CATEGORY LABEL>
inactive

$$$$
>  <COMPOUND>
COc1ccc(-c2cc(-c3ccc(Cl)cc3)c(C#N)c(=O)n2CCCCC(=O)NO)cc1

>  <CATEGORY LABEL>
inactive

$$$$
>  <COMPOUND>
CCOC(=O)c1c(C)n2c(=O)cc(C)c3c(OC(C)=O)c(OC(C)=O)cc1c32

>  <CATEGORY LABEL>
inactive

$$$$
>  <COMPOUND>
COc1cc(OCc2cccc(-c3ccc4c(c3)OCCO4)c2C)cc(OC)c1C=O

>  <CATEGORY LABEL>
inactive

$$$$
>  <COMPOUND>
Oc1cccc2c1NCCC2

>  <CATEGORY LABEL>
inactive

$$$$
>  <COMPOUND>
COc1ccc2c(O)cc3c(c2c1)[C@H](CCl)CN3C(=O)c1cc2cc(NC(=O)CCN3CCOCC3)ccc2[se]1

>  <CATEGORY LABEL>
active

$$$$
>  <COMPOUND>
CCN=c1sc2c(n1NC(=O)c1cc3ccc1CCc1ccc(cc1)CC3)C(=O)c1ccccc1C2=O

>  <CATEGORY LABEL>
active

$$$$
>  <COMPOUND>
CN1CCN(CCCNC(=O)c2c3c(n4ccccc24)C(=O)c2ncccc2C3=O)CC1

>  <CATEGORY LABEL>
inactive

$$$$
>  <COMPOUND>
CC(=O)O[C@H]1C[C@@]2(C)[C@@H](C[C@@H](O)[C@H]3[C@@]4(C)CC[C@H](N5CCCC5)[C@@H](C)[C@@H]4CC[C@@]32C)/C1=C(\CCC=C(C)C)C(=O)O

>  <CATEGORY LABEL>
inactive

$$$$
>  <COMPOUND>
Cc1nn(C)c2ncnc(Nc3ccccc3Br)c12

>  <CATEGORY LABEL>
inactive

$$$$
>  <COMPOUND>
COc1cc2c(cc1-c1c(C)noc1C)ncc1nc(C3CCOCC3)n(C3CCC(OC(F)F)CC3)c12 (centres undefined)

>  <CATEGORY LABEL>
inactive

$$$$
>  <COMPOUND>
CCCNNC(=O)c1ccc(CNC(=O)/C=C/c2ccccc2)cc1

>  <CATEGORY LABEL>
inactive

$$$$
>  <COMPOUND>
CN1CCN(Cc2ccc(NC(=O)c3cncc(C#Cc4cnc(N)c5ncccc45)c3)cc2Cl)CC1

>  <CATEGORY LABEL>
inactive

$$$$
>  <COMPOUND>
Cc1nc2ccccc2c(/C=C/c2ccc(Br)cc2)c1C(=O)/C=C/c1ccccc1

>  <CATEGORY LABEL>
active

$$$$
>  <COMPOUND>
COc1cc(C2=Nc3c(N)nc(N)nc3NC(c3cccc(Nc4ccnc5cc(C(F)(F)F)ccc45)c3)C2)cc(OC)c1OC (centres undefined)

>  <CATEGORY LABEL>
inactive

$$$$
>  <COMPOUND>
CC(=O)OCC(=O)O[C@@H]1C[C@]2(C(C)C)O[C@@]1(C)[C@@H]1CC[C@@H](C)[C@H]1[C@@H]2OC(=O)/C=C/c1ccccc1

>  <CATEGORY LABEL>
inactive

$$$$
>  <COMPOUND>
O=C1c2c(c3c4cc(F)ccc4oc3c3[nH]c4ccccc4c23)C(=O)N1O

>  <CATEGORY LABEL>
inactive

$$$$
>  <COMPOUND>
Cc1c(CC(=O)Nc2ccccc2)nnn1-c1ccccc1

>  <CATEGORY LABEL>
inactive

$$$$
>  <COMPOUND>
COc1ccc(-c2ccc(-c3ccc(C(=N)N)o3)o2)cc1

>  <CATEGORY LABEL>
inactive

$$$$
>  <COMPOUND>
CC(=O)c1c(/C=C/c2ccc(C)cc2)c2ccccc2[nH]c1=O

>  <CATEGORY LABEL>
inactive

$$$$
>  <COMPOUND>
COc1cc(/C=C/C(=O)c2ccc(-n3cc(CN4CCN(c5cc6c(cc5F)c(=O)c(C(=O)O)cn6C5CC5)CC4)nn3)cc2)cc(OC)c1OC

>  <CATEGORY LABEL>
inactive

$$$$
>  <COMPOUND>
COc1ccc(C(=O)/C=C/Nc2cc(-c3ccccc3)nn2-c2ccccc2)cc1

>  <CATEGORY LABEL>
inactive

$$$$
>  <COMPOUND>
COc1ccc(N2C(=O)/C(=C/C(Cl)=C/c3ccc([N+](=O)[O-])cc3)SC2=S)cc1

>  <CATEGORY LABEL>
inactive

$$$$
>  <COMPOUND>
CC/C(=C(/c1ccc(Cl)cc1)c1ccc(OCCCN(C)C)cc1)c1ccc(OC)cc1

>  <CATEGORY LABEL>
inactive

$$$$
>  <COMPOUND>
COC(=O)c1sc(-c2ccc(C)cc2)cc1O

>  <CATEGORY LABEL>
inactive

$$$$
>  <COMPOUND>
C=CC(=O)Nc1ccc2ncnc(Nc3cccc(NS(=O)(=O)CCC)c3Cl)c2c1

>  <CATEGORY LABEL>
inactive

$$$$
>  <COMPOUND>
COC(=O)c1ccc(-n2cc(CCCOS(=O)(=O)c3ccc(F)cc3)nn2)cc1

>  <CATEGORY LABEL>
inactive

$$$$
>  <COMPOUND>
CCOC(=O)c1ccc2c(c1)[n+](=O)c(C(C)=O)c(C(F)(F)F)n2[O-]

>  <CATEGORY LABEL>
inactive

$$$$
>  <COMPOUND>
O=C(O)c1nn(-c2ccc(Cl)cc2)nc1N1CCCC1

>  <CATEGORY LABEL>
inactive

$$$$
>  <COMPOUND>
COc1cccc(CNc2nnc(C)c(C)n2)c1O

>  <CATEGORY LABEL>
inactive

$$$$
>  <COMPOUND>
O=C(CN1C(=O)NC2NC(=O)NC21)N/N=C/c1cccc([N+](=O)[O-])c1 (centres undefined)

>  <CATEGORY LABEL>
inactive

$$$$
>  <COMPOUND>
Cc1nc2cccc(NCc3ccc(C(=O)NO)cc3)c2c(=O)n1-c1ccccc1

>  <CATEGORY LABEL>
inactive

$$$$
